The following binders are shown together with reported IC50, neutralization of TB40/E infection of ARPE-19 values.
Target: gH of HCMV strain TB40/E (human cytomegalovirus strain TB40/E)
Assay: cell-based or functional assay
Supply the numeric figure in µg/mL, leaving out any unit text.

Worked cases, answers included:
binder: 62-11 (antibody, V domains shown, also called NAb 62-11) VH: QVQLQQPGAELVRPGASVKLSCKASGYTFTSYWMNWVKQRPGQGLEWIGMIDPSDSETHYNQMFKDKATLTVDKSSSTAYMQLSSLTSEDSAVYYCSNGYSSFAYWGQGTLVTVSV VL: DVQMTQTTSSLSASLGDRVTISCSASQGISNYLNWYQQKPDGTVKLLIYDTSSLHSGVPSRFSGSGSGTDYSLTISNLEPEDIATYYCQQYSKLPYTFGGGTKLEIK
reported_measurement: 0.185
//
binder: 62-100 (antibody, V domains shown, also called NAb 62-100) VH: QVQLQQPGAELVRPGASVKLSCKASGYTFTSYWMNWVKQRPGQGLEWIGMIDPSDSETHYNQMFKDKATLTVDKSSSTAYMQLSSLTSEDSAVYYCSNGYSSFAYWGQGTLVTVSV VL: DIVLTQSPATLSVTPGDSVSLSCRASQSISNNLHWYQQKSHESPRLLIKYASQSISGIPSRFSGSGSGTDFTLSINSVETEDFGKYVCQQSNSWPLTFGSGTKLEIK
reported_measurement: 0.27
//
binder: 2-80 (antibody, V domains shown, also called NAb 2-80) VH: QIQLVQSGPELKKPGETVKISCKASGYTFTNFGMNWVKQAPGKGLKWMGWINTYTGEPTYADDFKGRFAFSLETSASTASLQINNLKNEDTATYFCARRGDGLYSMDYWGQGTSVTVSS VL: DIVLTQSPASLAVSLGQRATISCRASESIDSYGNSFMYWYQQKPGQPPKLLIYRASNLESGIPARFSGSGSRTDFTLTINPVEADDVATYYCQQSNEDPLTFGAGTKLELK
reported_measurement: 1.43
//
binder: 21E9 (antibody, V domains shown, also called NAb 21E9) VH: QIQLVQSGPELKKPGETVKISCKASGYTFTIYGMNWVKQAPGKGLKWMGWINTYTGEPTYADDFRGRFAFSLETSASTAYLQINNLKNEDTATYFCARKGYYGSSGYFDYWGQGTTLTVSS VL: SIVMTQTPKFLLVSAGDRVTITCKASQSVSNDVSWYQQKPGQSPKLLIYYASNRYTGVPDRFTGSGYGTDFTFTISTVQAEDLAVYFCQQDYSSPWTFGGGTKLEIK
reported_measurement: 1.41

The record that follows has no IC50, neutralization of TB40/E infection of ARPE-19 shown yet.
For the binder 18F10 (antibody, V domains shown, also called NAb 18F10) VH: QVTLKESGPGILQPSQTLSLTCSFSGFSLSTYGIGIGWIRQPSGKGLEWLAHIWWNDNKNYNTALKSRLTISKDPSNNQVFLKIASVDTADTATYFCARTGYFDVWGAGTTVTVSS VL: DVVLTQTPLSLPVSLGDQVSISCSSSQSLVHSNGNTYIHWYLQKPGQSPKLLIYTVSNRFSGVPDRFSGSGSGTDFTLKISRVEAEDLGLYFCSQSTHVPYTFGGGTKLEIK , what IC50, neutralization of TB40/E infection of ARPE-19 is on record?
0.763
